For each entry below, report its MIC value.
- System: Staphylococcus aureus
- experimental_protocol: In vitro antibacterial activity of A5177 strain of Gram positive bacteria Staphylococcus aureus
- Format: functional

Which measured MIC value corresponds to CC[C@H]1OC(=O)/C(C)=C/[C@H](C)[C@@H](O[C@@H]2O[C@H](C)C[C@H](N(C)C)[C@H]2O)[C@@](C)(OC)C[C@@H](C)C(=O)[C@H](C)[C@H]2N(NCCCc3cccc(Cl)c3)C(=O)O[C@]12C ?
0.39 µg/mL

For the molecule shown here, CC[C@H]1OC(=O)/C(C)=C/[C@H](C)[C@@H](O[C@@H]2O[C@H](C)C[C@H](N(C)C)[C@H]2O)[C@@](C)(OC)C[C@@H](C)C(=O)[C@H](C)[C@H]2N(NCc3ccc(O)c(O)c3)C(=O)O[C@]12C , give the reported MIC.
0.78 µg/mL

Requested read-out: MIC. Entry: CC[C@H]1OC(=O)C(C)C(=O)[C@H](C)[C@@H](O[C@@H]2O[C@H](C)C[C@H](N(C)C)[C@H]2O)[C@@](C)(OC)C[C@@H](C)C(=O)[C@H](C)[C@H]2N(NCCCc3ccnc4ccccc34)C(=O)O[C@]12C (stereo partly drawn)
0.05 µg/mL

---

- Tested on: Streptococcus pneumoniae
- experimental_protocol: In vitro antibacterial activity of 5649 strain of Gram positive bacteria Streptococcus pneumoniae
- Assay type: functional
endpoint_name: MIC (µg/mL)
Hi! Could you send only the number? It should be in µg/mL, unit omitted.

Any idea what its MIC is? The molecule is CC[C@H]1OC(=O)/C(C)=C/[C@H](C)[C@@H](O[C@@H]2O[C@H](C)C[C@H](N(C)C)[C@H]2O)[C@@](C)(OC)C[C@@H](C)C(=O)[C@H](C)[C@H]2N(NCc3ccc(C(F)(F)F)cc3)C(=O)O[C@]12C
2

Name the reported MIC value associated with the molecule CC[C@H]1OC(=O)/C(C)=C/[C@H](C)[C@@H](O[C@@H]2O[C@H](C)C[C@H](N(C)C)[C@H]2O)[C@@](C)(OC)C[C@@H](C)[C@H]2[C@H](C)[C@H]3N(C(=O)O[C@]13C)N2CCCc1ccccc1
64

---

I'd appreciate it if you could supply MIC values for the items below.
- Test system: Streptococcus pneumoniae
- experimental_protocol: In vitro antibacterial activity of 5649 strain of Gram positive bacteria Streptococcus pneumoniae
- Assay type: functional
All answers are understood in µg/mL, so give the number only.

Quick check: MIC of CC[C@H]1OC(=O)/C(C)=C/[C@H](C)[C@@H](O[C@@H]2O[C@H](C)C[C@H](N(C)C)[C@H]2O)[C@@](C)(OC)C[C@@H](C)C(=O)[C@H](C)[C@H]2N(NCCCc3ccc(Cl)cc3)C(=O)O[C@]12C ?
1

Value lookup for MIC; key = CC[C@H]1OC(=O)/C(C)=C/[C@H](C)[C@@H](O[C@@H]2O[C@H](C)C[C@H](N(C)C)[C@H]2O)[C@@](C)(OC)C[C@@H](C)C(=O)[C@@H](C)[C@H]2N(NCCCc3ccccc3)C(=O)O[C@]12C
8

Param item = CC[C@H]1OC(=O)/C(C)=C/[C@H](C)[C@@H](O[C@@H]2O[C@H](C)C[C@H](N(C)C)[C@H]2O)[C@@](C)(OC)C[C@@H](C)C(=O)[C@H](C)[C@H]2N(NCc3ccc(Cl)cc3)C(=O)O[C@]12C ; retrieve measured MIC.
1

// MIC lookup, key: CC[C@H]1OC(=O)/C(C)=C/[C@H](C)[C@@H](O[C@@H]2O[C@H](C)C[C@H](N(C)C)[C@H]2O)[C@@](C)(OC)C[C@@H](C)C(=O)[C@H](C)[C@H]2N(NC/C=C/c3ccc(N)cc3)C(=O)O[C@]12C
1

The reported measurements were obtained from ChEMBL document CHEMBL1131216.
